- assay-name: qHTS of pediatric cancer cell lines to identify multiple opportunities for drug repurposing: Primary screen for U-2 OS cells (AID 1347096); also: nearly all actives have a fitted effect of over 50% in size
- condition-info: U-2 OS viability, CellTiter-Glo luminescence, 48 h; series mostly up to 46 µM
Records with an inconclusive call do not appear. The source made the active and inactive calls. Calls follow the shape of the dose curve; as a rule, active = well fitted cell-killing curve with a large enough effect; inconclusive = small, poorly fitted or top-dose-only effect; inactive = flat fitted curve, though single readings scatter. Residues, ends and D or L forms follow the SMILES beside them. *: point of attachment. Cbz = O=C(OCc1ccccc1)*
The categories you may choose from are active, inactive

Dear all, I need the recorded test outcome for CCCCCCCCCCCCc1ccc(S(=O)(=O)Nc2nncs2)cc1 , thank you.
inactive

Another compound: CCC[C@H]1C[C@H](C(=O)N[C@@H]([C@@H]2O[C@@H](SC)[C@@H](O)[C@@H](O)[C@@H]2O)[C@H](C)Cl)N(C)C1
inactive

Another compound: C[C@]12C=CC(=O)N[C@@H]1CC[C@H]1[C@H]3CC[C@@H](C(=O)Nc4cc(C(F)(F)F)ccc4C(F)(F)F)[C@@]3(C)CC[C@@H]12
inactive

Another compound: C=C[C@@H]1CN2CCC1C[C@H]2[C@H](O)c1ccnc2ccc(OC)cc12 (stereo not given in full)
inactive

Another compound: Nc1nc(N)c2nc(-c3cccc(O)c3)c(-c3cccc(O)c3)nc2n1
active

Another compound: CC(C)(O)[C@H]1CC[C@@](C)([C@H]2[C@@H](O)C[C@@]3(C)[C@@H]4C[C@H](O[C@@H]5O[C@H](CO)[C@@H](O)[C@H](O)[C@@H]5O)[C@H]5C(C)(C)[C@@H](O[C@@H]6OC[C@@H](O)[C@H](O)[C@@H]6O)CC[C@@]56C[C@@]46CC[C@]23C)O1
inactive

Another compound: OCC(O)C(O)C(O)CO (stereo not given)
inactive

Another compound: COC1=C2C[C@@H](C)C[C@H](OC)[C@@H](O)[C@@H](C)C=C(C)[C@H](OC(N)=O)[C@@H](OC)C=CC=C(C)C(=O)NC(=CC1=O)C2=O
inactive

Another compound: COc1ccnc2[nH]cc(C(=O)C(=O)N3CCN(C(=O)c4ccccc4)C[C@@H]3C)c12
inactive

Another compound: C[C@H]1O[C@H](O[C@H]2[C@H](O)[C@@H](O)[C@@H](O[C@H]3[C@H](O)[C@@H](O)C(O)O[C@H]3CO)O[C@H]2CO)[C@H](O)[C@@H](O)[C@H]1N[C@H]1C=C(CO)[C@@H](O)[C@H](O)[C@@H]1O (stereo not given in full)
inactive

Another compound: Cc1nc(NC(=O)N2CCC[C@@H]2C(N)=O)sc1-c1ccnc(C(C)(C)C(F)(F)F)c1
inactive

Another compound: O=C(C=Cc1ccc(CN(CCO)CCc2c[nH]c3ccccc23)cc1)NO
active

Another compound: CC(C=CC=C(C)C=CC1=C(C)CCCC1(C)C)=CC=CC=C(C)C=CC=C(C)C=CC1=C(C)CCCC1(C)C
inactive

Another compound: CC(=O)NCC(=O)N1[C@H]2CC[C@H]1c1cc(Nc3ncc(C(F)(F)F)c(NC4CCC4)n3)ccc12
inactive

Another compound: C[C@H]1COc2c(N3CCN(C)CC3)c(F)cc3c(=O)c(C(=O)O)cn1c23
inactive

Another compound: Cc1cnc(Nc2ccc(CN3CCOCC3)cc2)nc1Nc1cccc(S(=O)(=O)NC(C)(C)C)c1
active

Another compound: Nc1nc2c(c(=O)[nH]1)N(C=O)[C@H](CNc1ccc(C(=O)N[C@@H](CCC(=O)O)C(=O)O)cc1)CN2
inactive

Another compound: CC(C)(O)Cn1c(NC(=O)c2ccc(-c3cn[nH]c3)s2)nc2cc(CN3CCOCC3)ccc21
active

Another compound: C[C@H](CCC(=O)O)[C@H]1CCC2C3C[C@H](O)[C@@H]4C[C@H](O)CC[C@]4(C)C3CC[C@@]21C (stereo not given in full)
inactive

Another compound: CC(C)OC(=O)[C@H](C)N[P@](=O)(OC[C@H]1O[C@@H](n2ccc(=O)[nH]c2=O)[C@](C)(F)[C@H]1O)Oc1ccccc1
inactive

Another compound: CC(C)C[C@@H](C=O)NC(=O)[C@H](CC(C)C)NC(=O)[C@H](CC(C)C)NC(=O)OCc1ccccc1 (Cbz-Leu-Leu-Leu-aldehyde)
active

Another compound: C=C1C(=CC=C2CCC[C@]3(C)[C@@H]([C@H](C)CCCC(C)(C)O)CC[C@@H]23)C[C@@H](O)C[C@@H]1O
active

Another compound: Cc1ccc([N+](=O)[O-])cc1S(=O)(=O)N(C)N=Cc1cnc2ccc(Br)cn12
active

Another compound: O=C(O)C=Cc1ccc(Cn2ccnc2)cc1
inactive

Another compound: CC1(C)[C@H](O[C@H]2O[C@H](C(=O)O)[C@@H](O)[C@H](O)[C@H]2O[C@@H]2O[C@H](C(=O)O)[C@@H](O)[C@H](O)[C@H]2O)CC[C@@]2(C)[C@H]1CC[C@]1(C)[C@H]2C(=O)C=C2[C@H]3C[C@@](C)(C(=O)O)CC[C@]3(C)CC[C@]21C
inactive

Another compound: C#C[C@]1(O)CC[C@@H]2[C@@H]3CCC4=CC(=O)CC[C@@H]4[C@H]3CC[C@@]21CC
inactive

Another compound: C=C1C[C@@]2(O)O[C@@]3(C[C@H]2C(C)C)[C@H](C)CC[C@H]13
inactive

Another compound: CC1(C)CC(O)CC(C)(C)N1[O]
inactive

Another compound: CCc1ccc(C(=O)Nc2cc(CN3CCN(C)CC3)cc(C(F)(F)F)c2)cc1C#Cc1cnc2ccnn2c1
active

Another compound: CCOC(=O)C=C[C@H](C[C@@H]1CCNC1=O)NC(=O)[C@@H](CC(=O)[C@@H](NC(=O)c1cc(C)on1)C(C)C)Cc1ccc(F)cc1
inactive
